assay: Liver microsomal stability; assay type: in vitro ADME; conditions: liver microsomes; Human liver microsomal hepatic stability; read-out: HLM t1/2
Test readout: half-life at 1 µM (min)
Answers are plain numbers, in min.

compound=CC(C)c1ccccc1-c1nc(NCc2ccccn2)c2ccccc2n1 data_value=37
compound=FC(F)(F)c1ccccc1-c1nc(NCc2ccccn2)c2ccccc2n1 data_value=31

Here are 2 compounds. What values of half-life at 1 µM were reported for them?
1. FC(F)(F)c1ccccc1-c1nc(NCc2cccs2)c2ccccc2n1 [Compound 1, NIH-12848, reference compound]
2. CC(C)c1ccccc1-c1nc(NCc2ccccn2)c2c(ccn2C)n1

[21, 47]

Here are 2 compounds. What values of half-life at 1 µM were reported for them?
1. FC(F)(F)c1ccccc1-c1nc(NCc2ccccn2)c2cccnc2n1
2. Cc1cnc(-c2ccccc2C(F)(F)F)nc1NCc1ccccn1

1. 100
2. 41
